# Assay protocol: Oral bioavailability in CD-1 mouse at 30 mg/kg measured upto 8 hrs by UPLC-MS/MS analysis
# Type: ADME, organism-based
# Settings: in vivo

{"columns": ["Structure", "bioavailability / %"],
 "data": [
  ["NCCCCN(Cc1nc2ccccc2[nH]1)[C@H]1CCCc2cccnc21", 2.4]
]}

====

# Assay protocol: Clearance in CD-1 mouse at 30 mg/kg, po or at 3 mg/kg, iv by UPLC-MS/MS analysis
# Assay type: ADME, organism-based
# Settings: in vivo

{"columns": ["Compound", "clearance"],
 "data": [
  ["CN1CCN(Nc2cccc3c2CC(CN(C)[C@H]2CCCc4cccnc42)NC3)CC1 (single isomer, unassigned)", "30.5 mL/min/kg"]
]}
